target-or-system: PI3Kδ (Homo sapiens (Human))
Sequence (O00329 whole entry, canonical isoform): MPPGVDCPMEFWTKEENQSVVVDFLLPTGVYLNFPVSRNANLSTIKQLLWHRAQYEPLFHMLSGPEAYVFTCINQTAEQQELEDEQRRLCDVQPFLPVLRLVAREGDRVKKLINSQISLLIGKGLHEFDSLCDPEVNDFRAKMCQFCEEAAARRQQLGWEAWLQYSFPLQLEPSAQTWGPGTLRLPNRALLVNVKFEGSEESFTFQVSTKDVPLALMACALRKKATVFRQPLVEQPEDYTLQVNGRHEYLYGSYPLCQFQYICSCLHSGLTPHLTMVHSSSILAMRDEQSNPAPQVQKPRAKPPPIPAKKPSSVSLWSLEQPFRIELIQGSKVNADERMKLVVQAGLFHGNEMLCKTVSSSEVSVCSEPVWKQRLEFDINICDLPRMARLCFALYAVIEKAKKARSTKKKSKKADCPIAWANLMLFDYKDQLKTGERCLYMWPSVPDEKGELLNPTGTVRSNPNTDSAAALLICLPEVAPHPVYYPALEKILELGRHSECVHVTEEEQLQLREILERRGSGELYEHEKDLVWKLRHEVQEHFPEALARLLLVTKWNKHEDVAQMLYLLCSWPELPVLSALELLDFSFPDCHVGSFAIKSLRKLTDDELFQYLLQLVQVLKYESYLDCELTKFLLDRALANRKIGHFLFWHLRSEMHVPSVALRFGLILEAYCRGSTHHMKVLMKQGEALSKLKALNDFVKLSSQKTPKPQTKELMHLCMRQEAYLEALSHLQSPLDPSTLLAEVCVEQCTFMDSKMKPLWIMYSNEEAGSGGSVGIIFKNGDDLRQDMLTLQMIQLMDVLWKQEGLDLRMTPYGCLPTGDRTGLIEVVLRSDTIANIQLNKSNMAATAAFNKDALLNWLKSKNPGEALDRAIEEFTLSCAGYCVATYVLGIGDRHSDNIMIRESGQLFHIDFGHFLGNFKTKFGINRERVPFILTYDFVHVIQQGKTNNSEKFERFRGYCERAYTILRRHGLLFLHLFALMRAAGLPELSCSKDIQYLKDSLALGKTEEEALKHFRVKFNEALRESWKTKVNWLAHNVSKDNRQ
Sequence (P27986 whole entry partner, canonical isoform): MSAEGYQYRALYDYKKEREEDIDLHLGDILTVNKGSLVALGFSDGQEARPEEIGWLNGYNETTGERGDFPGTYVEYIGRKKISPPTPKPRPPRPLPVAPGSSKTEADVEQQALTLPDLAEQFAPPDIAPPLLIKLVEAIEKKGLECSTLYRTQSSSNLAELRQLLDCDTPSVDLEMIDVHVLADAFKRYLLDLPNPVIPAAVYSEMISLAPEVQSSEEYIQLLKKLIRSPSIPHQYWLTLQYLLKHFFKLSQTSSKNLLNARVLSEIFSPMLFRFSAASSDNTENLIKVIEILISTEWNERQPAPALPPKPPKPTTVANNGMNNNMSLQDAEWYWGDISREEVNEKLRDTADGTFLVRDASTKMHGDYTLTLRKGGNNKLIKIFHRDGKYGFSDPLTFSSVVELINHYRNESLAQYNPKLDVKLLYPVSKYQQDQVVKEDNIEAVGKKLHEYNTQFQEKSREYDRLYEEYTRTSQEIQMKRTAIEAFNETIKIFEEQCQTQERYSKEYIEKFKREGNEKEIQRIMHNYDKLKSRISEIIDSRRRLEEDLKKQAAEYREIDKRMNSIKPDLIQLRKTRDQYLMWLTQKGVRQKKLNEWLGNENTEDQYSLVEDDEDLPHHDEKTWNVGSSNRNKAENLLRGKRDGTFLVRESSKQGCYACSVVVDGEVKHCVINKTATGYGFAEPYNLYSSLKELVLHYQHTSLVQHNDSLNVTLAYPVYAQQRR
test-name: Enzymatic activity of PI3K isoforms, TR-FRET assay (PI3Kδ)
protocol-conditions: 2× Km ATP, geometric mean if more than one value
pIC50: −log10 of the molar value.
Is pIC50 at least 8? Then Condition met. If not, Condition not met.

Is it the case that Cc1c(F)cncc1-n1c([C@@H](Nc2nc(N)nc(N)c2C#N)C2CC2)nc2cccc(Cl)c2c1=O (atropisomer, axis not shown) [Compound 70] has pIC50 reaching or exceeding 8?
Condition met

Could you verify whether the entry N#Cc1c(N)nc(N)nc1N[C@H](c1nc2c(C#N)cc(F)cc2c(=O)n1-c1cncc(F)c1)C1CC1 [Compound 56] shows pIC50 of no less than 8?
Condition not met

// inclusive: pIC50 at least 8? input: Cc1cc(N)ncc1-n1c([C@@H](Nc2nc(N)nc(N)c2C#N)C2CC2)nc2c(Cl)ccc(Cl)c2c1=O (atropisomer, axis not shown) [Compound 98]
Condition not met

For this molecule, is measured pIC50 8 or higher? CC[C@H](Nc1nc(N)nc(N)c1C#N)c1nc2c(F)ccc(Cl)c2c(=O)n1-c1cccnc1 [Compound 26]
Condition met

###

Tested on: basophils
test-name: Basophil activation in human whole blood (Flow2 CAST kit, CD63 flow cytometry)
Format: cell-based
protocol-conditions: Homo sapiens, human whole blood, basophils activated with anti-FcεRI mAb or fMLP, percent CD63 positive cells, geometric mean
pEC50: −log10 of the molar value.
Class membership depends on pEC50 alone; the intervals are low (below 8), moderate (8 to below 9), high (9 or more)

Which class holds `C[C@H](Nc1nc(N)nc(N)c1C#N)c1nc2cccc(Cl)c2c(=O)n1-c1cncc(C(F)(F)F)c1` ?
low

Band assignment needed for `Cc1cncc(-n2c([C@H](C)Nc3nc(N)nc(N)c3C#N)nc3c(F)ccc(Cl)c3c2=O)c1` please.
high

Into which category would you place `C[C@H](Nc1nc(N)nc(N)c1C#N)c1nc2c(F)ccc(C#N)c2c(=O)n1-c1cccnc1` ?
low

Band of `N#Cc1c(N)nc(N)nc1N[C@H](c1nc2cccc(Cl)c2c(=O)n1-c1cccnc1)C1CC1` ?
moderate

Band for the recorded pEC50 of `COc1cncc(-n2c([C@H](C)Nc3nc(N)nc(N)c3C#N)nc3cccc(Cl)c3c2=O)c1` ?
moderate

GET /class?item= `CC[C@H](Nc1nc(N)nc(N)c1C#N)c1nc2c(F)ccc(C#N)c2c(=O)n1-c1cccnc1`
low

Form: Item = `N#Cc1c(N)nc(N)nc1N[C@H](c1nc2c(F)ccc(Cl)c2c(=O)n1-c1cncc(F)c1)C1CC1` ; Class = ?
moderate

Hi there! Could you help me figure out the category for Cc1c(F)cncc1-n1c([C@H](C)Nc2nc(N)nc(N)c2C#N)nc2cccc(Cl)c2c1=O (atropisomer, axis not shown) please?
high

###

System: basophils
test-name: Basophil activation in human whole blood (Flow2 CAST kit, CD63 flow cytometry)
Assay type: cell-based
protocol-conditions: Homo sapiens, basophil activation in human whole blood; comparison Table 4
recorded-metric: EC50

Consider the compound shown here: C[C@H](Nc1ncnc2[nH]cnc12)c1nc2cccc(Cl)c2c(=O)n1-c1ccccc1 [Compound X, reference compound] What is its recorded EC50?
> 5 nM

Fill in: EC50 of C[C@H](Nc1ncnc(N)c1C#N)c1nc2cccc(Cl)c2c(=O)n1-c1ccccc1 [Compound Y, reference compound] is ___
> 10 nM

Which EC50 value belongs to C[C@H](Nc1nc(N)nc(N)c1C#N)c1nc2cccc(Cl)c2c(=O)n1-c1cccnc1 [Compound 1] ?
< 1 nM
